Source of measurements: patent EP1382597A2

Molecular target: human PR-B (Homo sapiens)
Construct: expressed in transfected cells; host or cells: CV-1 cells (African green monkey kidney fibroblasts), transient transfection
Test: Co-transfection assay, PR agonist activity;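 note: CV-1 cells (African green monkey kidney) co-transfected with receptor plasmid and hormone-responsive firefly luciferase reporter, agonism read as compound-dependent rise in luciferase signal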
Format: cell-based
Conditions: CV-1, read-out: PR Agonist CV-1 Cells Efficacy (%)
READOUT_KIND: Emax (%)
Field: numeric (%). Do not append units.

* CC1=CC(C)(C)Nc2ccc3c(c21)C(c1ccccc1)Oc1ccccc1-3 (racemic) | 47

Turning now to a further molecule:
Req: Dear colleague, I am looking for the recorded Emax of the following molecule: CC1=CC(C)(C)Nc2ccc3c(c21)C(c1cccc(F)c1)Oc1ccccc1-3 (racemic)
Resp: 26

###

Molecular target: ER (Homo sapiens)
Construct: expressed in transfected cells; host or cells: CV-1 cells, transient transfection, with MTV-ERE5-LUC reporter
Sequence (P03372 whole entry): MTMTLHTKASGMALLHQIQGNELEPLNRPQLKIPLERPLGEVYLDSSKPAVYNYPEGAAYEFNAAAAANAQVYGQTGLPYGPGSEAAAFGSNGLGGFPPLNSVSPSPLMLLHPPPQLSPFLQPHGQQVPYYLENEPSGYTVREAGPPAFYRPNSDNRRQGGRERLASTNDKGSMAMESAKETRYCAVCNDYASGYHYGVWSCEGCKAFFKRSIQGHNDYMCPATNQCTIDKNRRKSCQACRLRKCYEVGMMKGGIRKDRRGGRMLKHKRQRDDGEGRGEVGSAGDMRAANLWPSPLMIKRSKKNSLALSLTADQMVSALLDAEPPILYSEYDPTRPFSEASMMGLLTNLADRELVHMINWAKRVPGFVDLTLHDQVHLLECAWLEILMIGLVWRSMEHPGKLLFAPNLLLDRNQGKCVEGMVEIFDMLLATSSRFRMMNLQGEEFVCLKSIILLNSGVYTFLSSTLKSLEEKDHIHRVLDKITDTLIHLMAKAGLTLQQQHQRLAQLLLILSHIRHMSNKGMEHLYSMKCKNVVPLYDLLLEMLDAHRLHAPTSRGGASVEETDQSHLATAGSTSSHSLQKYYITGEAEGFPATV
Test: Co-transfection assay, ER antagonist activity
Assay type: cell-based
Each entry below carries its recorded pIC50.
Quick note: pIC50 values are minus log10 of concentrations in mol/L.

Examples with answers:
* CC1=CC(C)(C)Nc2ccc3c(c21)C(c1ccc(Cl)cc1)Oc1ccccc1-3 (racemic) | 5.67
* CC1=CC(C)(C)Nc2ccc3c(c21)C(c1cccc(F)c1)Oc1ccccc1-3 (racemic) | 6.48
* CC1=CC(C)(C)Nc2ccc3c(c21)C(c1cccc(C(F)(F)F)c1)Oc1ccccc1-3 (racemic) | 5.36
* CC1=CC(C)(C)Nc2ccc3c(c21)C(c1ccsc1)Oc1ccccc1-3 (racemic) | 6.24
* COc1cccc(C2Oc3ccccc3-c3ccc4c(c32)C(C)=CC(C)(C)N4)c1 (racemic) | 6.41

Turning now to a further compound:
Req: Dear colleague, I am looking for the recorded pIC50 of the following compound: C=C1CC(C)(C)Nc2ccc3c(c21)C(c1cccc(F)c1)Oc1ccccc1-3 (racemic)
Resp: 6.71

###

Each entry below carries its recorded Emax.
Molecular target: AR (Homo sapiens, UniProt P10275)
Construct: expressed in transfected cells; host or cells: CV-1 cells, transient transfection
Sequence (P10275 whole entry): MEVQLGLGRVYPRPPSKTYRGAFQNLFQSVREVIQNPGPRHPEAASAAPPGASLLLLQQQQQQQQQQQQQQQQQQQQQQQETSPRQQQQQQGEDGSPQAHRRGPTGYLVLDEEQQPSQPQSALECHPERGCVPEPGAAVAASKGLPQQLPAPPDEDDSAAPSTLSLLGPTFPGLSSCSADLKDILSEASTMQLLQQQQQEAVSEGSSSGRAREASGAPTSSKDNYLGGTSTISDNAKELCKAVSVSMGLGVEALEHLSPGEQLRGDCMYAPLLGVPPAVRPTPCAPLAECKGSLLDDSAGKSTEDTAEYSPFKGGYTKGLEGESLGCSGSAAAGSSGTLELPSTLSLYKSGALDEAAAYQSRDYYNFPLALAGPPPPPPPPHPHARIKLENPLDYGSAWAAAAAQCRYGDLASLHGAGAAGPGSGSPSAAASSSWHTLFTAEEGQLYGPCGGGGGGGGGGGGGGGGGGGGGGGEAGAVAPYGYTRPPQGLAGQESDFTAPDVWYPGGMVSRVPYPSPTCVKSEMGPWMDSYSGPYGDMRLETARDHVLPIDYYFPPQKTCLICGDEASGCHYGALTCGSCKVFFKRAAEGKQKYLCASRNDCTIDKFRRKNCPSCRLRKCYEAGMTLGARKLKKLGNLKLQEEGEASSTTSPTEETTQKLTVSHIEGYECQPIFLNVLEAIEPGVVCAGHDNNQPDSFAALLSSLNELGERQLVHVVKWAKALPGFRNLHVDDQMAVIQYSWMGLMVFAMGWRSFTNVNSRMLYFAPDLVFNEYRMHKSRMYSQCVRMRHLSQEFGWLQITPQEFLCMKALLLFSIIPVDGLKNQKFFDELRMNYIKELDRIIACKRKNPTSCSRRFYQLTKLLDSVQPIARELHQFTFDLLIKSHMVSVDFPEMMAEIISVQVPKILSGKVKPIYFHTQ
Assay: Co-transfection assay, AR agonist activity
Assay type: cell-based
Details: CV-1, read-out: AR Agonist CV-1 Cells Efficacy (%)

• CC1=CC(C)(C)Nc2cc3oc(=O)cc(C(F)(F)C(F)(F)F)c3cc21 = < 20%
• CC1=CC(C)(C)N(C)c2cc3oc(=O)cc(C(F)(F)F)c3cc21 = < 20%
• CCC1CCNc2cc3oc(=O)cc(C(F)(F)F)c3cc21 (racemic) = 118%
• CC1=CC(C)(C)Nc2cc3oc(=O)cc(C(F)(F)F)c3cc21 = 96%
• CC1C(=O)C(C)(C)Nc2cc3[nH]c(=O)cc(C(F)(F)F)c3cc21 (racemic) = < 20%

Turning now to a further molecule:
Req: Dear colleague, I am looking for the recorded Emax of the following molecule: CC1CC(C)(C)Nc2cc3oc(=O)cc(-c4ccoc4)c3cc21 (racemic)
Resp: < 20%

###

Biological target: human progesterone receptor A form (PR-A) (Homo sapiens, UniProt P06401)
Sequence (P06401 whole entry): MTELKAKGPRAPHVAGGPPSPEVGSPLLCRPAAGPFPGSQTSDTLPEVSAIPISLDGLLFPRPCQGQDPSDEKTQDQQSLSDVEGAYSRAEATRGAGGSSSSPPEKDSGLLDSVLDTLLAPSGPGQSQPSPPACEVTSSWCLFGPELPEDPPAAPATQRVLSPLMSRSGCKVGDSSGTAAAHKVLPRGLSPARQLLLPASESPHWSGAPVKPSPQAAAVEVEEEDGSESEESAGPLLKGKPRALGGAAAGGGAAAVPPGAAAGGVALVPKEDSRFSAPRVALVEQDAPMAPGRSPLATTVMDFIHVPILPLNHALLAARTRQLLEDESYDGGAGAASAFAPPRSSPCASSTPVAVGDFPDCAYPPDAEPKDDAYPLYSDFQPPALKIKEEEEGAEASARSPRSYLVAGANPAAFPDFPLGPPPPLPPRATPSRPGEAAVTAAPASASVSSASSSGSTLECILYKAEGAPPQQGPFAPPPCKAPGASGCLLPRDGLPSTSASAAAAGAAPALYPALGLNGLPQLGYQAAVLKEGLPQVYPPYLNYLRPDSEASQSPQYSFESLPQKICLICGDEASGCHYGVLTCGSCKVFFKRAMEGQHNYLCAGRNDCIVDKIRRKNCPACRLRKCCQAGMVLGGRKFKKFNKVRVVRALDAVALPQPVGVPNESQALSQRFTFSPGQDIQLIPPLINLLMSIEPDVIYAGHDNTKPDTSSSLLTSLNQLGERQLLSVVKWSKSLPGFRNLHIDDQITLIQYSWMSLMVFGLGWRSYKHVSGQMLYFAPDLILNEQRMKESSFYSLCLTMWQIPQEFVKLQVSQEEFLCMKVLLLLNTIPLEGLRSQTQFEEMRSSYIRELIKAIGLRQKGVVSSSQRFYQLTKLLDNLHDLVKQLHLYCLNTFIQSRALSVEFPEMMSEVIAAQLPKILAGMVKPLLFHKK
Test: PR binding assay
Each entry below carries its recorded Ki.
Don't forget the unit after the number, please.

• CC1=CC(C)(C)Nc2ccc(-c3cccc(F)c3F)cc21 = 53 nM

Turning now to a further compound:
Req: Dear colleague, I am looking for the recorded Ki of the following compound: C[C@H]1C(=O)C(C)(C)Nc2ccc3c(c21)O[C@H](c1ccccc1)c1ccccc1-3 (relative stereo)
Resp: 187 nM
